# run.description: Pharmacokinetics in mice
# Type: in vivo
# applied.conditions: mouse, plasma; male CD-1 mice; 1 mg/kg, iv
reported.endpoint: clearance (L/h/kg)

compound=COc1ccc2c(ncc3ncn(Cc4ccc(S(N)(=O)=O)cc4)c32)n1 unit_name=L/h/kg reported=6.9
compound="COc1ccc2c(ncc3cnn(Cc4ccc(S(N)(=O)=O)c(F)c4)c32)n1 [Compound 122a]" unit_name=L/h/kg reported=6

1: COc1ccc2c(ncc3nc(C4CC4)n(Cc4ccc(S(N)(=O)=O)cn4)c32)n1
2: COc1ccc2c(ncc3[nH]c(=O)n(Cc4ccc(S(N)(=O)=O)cc4)c32)n1
Input line: Hi! Which is lower in terms of clearance, the first one 1 or the second one 2 ? Returns: label corresponding to the selected item.
Output line: 2

* * *

# assayed.system: ENPP-1, Saos-2 cells (Homo sapiens)
# Construct: ENPP-1 were mainly expressed on the surface of cell membrane; endogenous in cells; host or cells: Saos-2
# run.description: Cellular enzymatic assay of ENPP-1 inhibitors using TMP-pNP as substrate, Saos-2 cells
# Assay type: cell-based
# applied.conditions: SAOS-2, read-out: % Inhibition (@20 μM)
reported.endpoint: inhibition at 20 µM (%)
The reply should contain only the number, in %.

Example compounds with recorded inhibition at 20 µM:
compound="COc1ccc2c(c1)ncc1[nH]c(=O)n(Cc3ccc(S(N)(=O)=O)cc3)c12 [Compound 35]" reported_endpoint="inhibition at 20 µM" unit_name=% reported=76
compound="COc1ccc2ncc3ncn(Cc4ccc(S(N)(=O)=O)cc4)c3c2c1 [Compound 36]" reported_endpoint="inhibition at 20 µM" unit_name=% reported=48
compound="COc1cc2ncc3ncn([C@H](C)c4ccc(S(N)(=O)=O)cc4)c3c2cc1OC [Compound 11a]" reported_endpoint="inhibition at 20 µM" unit_name=% reported=87

Kindly consider the entry below.
Input line: Looking for the measured inhibition at 20 µM of COc1cc2ncc3[nH]c(=O)n(Cc4ccc(S(N)(=O)=O)cc4)c3c2cc1OC [Compound 1] , can you help?
Output line: 32

* * *

# assayed.system: ENPP-1, HEK293 cells (Homo sapiens, UniProt P22413)
# Construct: ENPP-1 were mainly expressed on the surface of cell membrane; endogenous in cells
# run.description: Cellular enzymatic assay of ENPP-1 inhibitors using TMP-pNP as substrate, HEK 293 cells
A collection of compounds and their measured IC50
Report the figure in µM without appending any unit label.

Sample answers from the record:
compound="COc1ccc2c(ncc3nc(C)n(Cc4ccc(S(N)(=O)=O)cc4)c32)n1 [Compound 48]" unit_name=µM reported=0.67
compound="COc1ccc2ncc3ncn(Cc4ccc(S(N)(=O)=O)cc4)c3c2c1 [Compound 36]" unit_name=µM reported=5

Now for the compound whose IC50 we want.
Input line: Recorded IC50 for COc1cnc2c(c1)ncc1ncn(Cc3ccc(S(N)(=O)=O)cc3)c12 [Compound 49] with ENPP-1, HEK293 cells (Homo sapiens, UniProt P22413), please?
Output line: 10

* * *

# assayed.system: human soluble ENPP1 (Homo sapiens)
# Construct: 20 ng of human soluble ENPP1
# run.description: ENPP1 activity assay using p-Nitrophenyl-5′-TMP as a substrate
# Type: biochemical
# Experimental: ENPP1 is a transmembrane glycoprotein that hydrolyzes nucleotides and nucleotide derivatives with the formation of nucleotide-5′-monophosphates. […] The percent inhibition at each compound is calculated as follows: % inhibition=(ODMAX−ODCOMPOUND)/(ODMAX−ODMIN)*100. […] The IC50 values for percent inhibition versus compound concentration were determined by fitting the inhibition curves using a four-parameter variable slope model in GraphPad Prism® 8.
pIC50: −log10 of the molar value.
reported.endpoint: pIC50

Examples with answers:
molecule=COc1ccc2c(ncc3ncn(Cc4ccc(S(N)(=O)=O)c(OC(F)(F)F)c4)c32)n1 assayed_system="human soluble ENPP1 (Homo sapiens)" reported_endpoint=pIC50 reported=8.52
molecule=COc1ccc2c(ncc3nc(C4CN(S(C)(=O)=O)C4)n(Cc4ccc(S(N)(=O)=O)c(F)c4)c32)n1 assayed_system="human soluble ENPP1 (Homo sapiens)" reported_endpoint=pIC50 reported=9.09
molecule=COc1ccc2c(ncc3ncn(Cc4ccc(S(N)(=O)=O)cc4)c32)n1 assayed_system="human soluble ENPP1 (Homo sapiens)" reported_endpoint=pIC50 reported=9.60
molecule=COc1ccc2c(ncc3nc(C)n(Cc4ccc(S(N)(=O)=O)nc4)c32)n1 assayed_system="human soluble ENPP1 (Homo sapiens)" reported_endpoint=pIC50 reported=9.44
molecule=COc1cc2ncc3[nH]c(=O)n(Cc4ccc(S(N)(=O)=O)cc4)c3c2cc1OC assayed_system="human soluble ENPP1 (Homo sapiens)" reported_endpoint=pIC50 reported=8.77

A: COc1ccc2c(ncc3[nH]c(=O)n(CC4CC(OS(N)(=O)=O)C4)c32)n1 (centres unmarked)
B: COc1ccc2c(ncc3nc(C)n(Cc4ccc(S(=O)(=O)NC(C)=O)cn4)c32)n1
Input line: For the pair A and B , which entry has the numerically smaller recorded pIC50? Kindly state the label of the option you pick.
Output line: B

* * *

# run.description: Pharmacokinetics in mice
# Assay type: in vivo
# applied.conditions: mouse, plasma; male CD-1 mice; 1 mg/kg, iv
reported.endpoint: half-life (h)

Worked cases, half-life given:
structure_as_smiles=COc1ccc2c(ncc3ncn(Cc4ccc(S(N)(=O)=O)c(C(F)(F)F)c4)c32)n1 unit_name=h reported=0.72
structure_as_smiles=COc1ccc2c(ncc3[nH]c(=O)n(Cc4ccc(S(N)(=O)=O)cc4)c32)n1 unit_name=h reported=1.9

a: COc1ccc2c(ncc3ncn([C@H](C)c4ccc(S(N)(=O)=O)cn4)c32)n1
b: COc1ccc2c(ncc3ncn(Cc4ccc(S(N)(=O)=O)c(F)c4)c32)n1
Input line: Between a and b , which one shows the smaller half-life number? Indicate which entry you chose by stating its label.
Output line: b
(b: 1.4 h, a: 2.5 h)

* * *

// values below are reported inhibition at 20 µM
# assayed.system: ENPP-1, HEK293 cells (Homo sapiens, UniProt P22413)
# Construct: ENPP-1 were mainly expressed on the surface of cell membrane; endogenous in cells; host or cells: HEK293
# run.description: Cellular enzymatic assay of ENPP-1 inhibitors using TMP-pNP as substrate, HEK 293 cells
# Type: cell-based
# applied.conditions: HEK293; HEK 293 cells; at 20 μM; read-out: Inhibition (at 20 μM)
Your answer should be a plain number; it is taken to be in %.

For orientation, consider the following solved cases.
compound="COc1ccc2c(ncc3ncn(Cc4ccc(S(N)(=O)=O)nc4)c32)n1 [Compound 41]" reported=96
compound="COc1cc2ncc3ncn([C@H](C)c4ccc(S(N)(=O)=O)cc4)c3c2cc1OC [Compound 11a]" reported=84
compound="COc1ccc2c(ncc3ncn(Cc4ccc(S(N)(=O)=O)cc4)c32)n1 [Compound 39]" reported=94
compound="COc1ccc2c(ncc3nc(C)n(Cc4ccc(S(N)(=O)=O)cc4)c32)n1 [Compound 48]" reported=95
compound="COc1ccc2c(ncc3nc(C(F)(F)F)n(Cc4ccc(S(N)(=O)=O)cc4)c32)n1 [Compound 47]" reported=77

Input line: I would be grateful if you could share the reported inhibition at 20 µM for COc1cc2ncc3ncn(Cc4ccc(S(N)(=O)=O)cn4)c3c2cc1OC [Compound 12] .
Output line: 85

Input line: For the compound COc1cnc2c(c1)ncc1ncn(Cc3ccc(S(N)(=O)=O)cc3)c12 [Compound 49] , what inhibition at 20 µM is on record?
Output line: 67

* * *

# assayed.system: ENPP-1, MDA-MB-231 cells (Homo sapiens, UniProt P22413)
# Sequence (P22413 1-925): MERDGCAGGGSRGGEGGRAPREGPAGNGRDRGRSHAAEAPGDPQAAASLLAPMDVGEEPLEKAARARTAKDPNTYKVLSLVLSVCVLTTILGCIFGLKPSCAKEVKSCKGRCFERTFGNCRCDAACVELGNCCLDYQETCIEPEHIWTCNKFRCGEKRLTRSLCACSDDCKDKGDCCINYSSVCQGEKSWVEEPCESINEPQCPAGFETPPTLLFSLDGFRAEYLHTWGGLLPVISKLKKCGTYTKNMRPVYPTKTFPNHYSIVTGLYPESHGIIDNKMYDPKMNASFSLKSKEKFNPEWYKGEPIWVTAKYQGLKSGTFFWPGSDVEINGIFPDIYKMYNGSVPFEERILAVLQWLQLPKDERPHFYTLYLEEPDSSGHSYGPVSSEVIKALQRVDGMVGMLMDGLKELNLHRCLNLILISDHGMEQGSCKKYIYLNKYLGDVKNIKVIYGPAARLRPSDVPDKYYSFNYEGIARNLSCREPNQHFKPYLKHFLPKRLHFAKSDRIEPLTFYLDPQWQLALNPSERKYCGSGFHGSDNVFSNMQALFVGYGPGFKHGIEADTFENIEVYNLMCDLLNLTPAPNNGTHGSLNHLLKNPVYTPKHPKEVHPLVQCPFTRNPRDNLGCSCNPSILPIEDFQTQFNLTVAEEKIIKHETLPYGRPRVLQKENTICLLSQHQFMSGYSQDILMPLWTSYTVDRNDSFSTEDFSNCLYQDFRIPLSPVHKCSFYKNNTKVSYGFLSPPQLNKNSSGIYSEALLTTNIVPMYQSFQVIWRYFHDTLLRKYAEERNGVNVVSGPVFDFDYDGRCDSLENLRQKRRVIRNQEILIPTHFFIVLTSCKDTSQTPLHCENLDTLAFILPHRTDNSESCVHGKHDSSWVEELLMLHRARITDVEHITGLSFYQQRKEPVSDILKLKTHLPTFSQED
reported.endpoint: IC50 (nM)

The cases that follow already have their IC50 on record.
structure_as_smiles=COc1ccc2c(ncc3ncn([C@H](C)c4ccc(S(N)(=O)=O)cn4)c32)n1 assayed_system="ENPP-1, MDA-MB-231 cells (Homo sapiens, UniProt P22413)" unit_name=nM reported=490
structure_as_smiles=COc1ccc2c(n1)nc(C)c1nnn(Cc3ccc(S(N)(=O)=O)cn3)c12 assayed_system="ENPP-1, MDA-MB-231 cells (Homo sapiens, UniProt P22413)" unit_name=nM reported=0.31
structure_as_smiles=COc1cnc2c(c1)ncc1ncn(Cc3ccc(S(N)(=O)=O)cc3)c12 assayed_system="ENPP-1, MDA-MB-231 cells (Homo sapiens, UniProt P22413)" unit_name=nM reported=6000

I: COc1ccc2c(ncc3nc(C4CC4)n(Cc4ccc(S(N)(=O)=O)cn4)c32)n1
II: COc1ccc2c(ncc3ncn(CC4CN(S(N)(=O)=O)C4)c32)n1
III: COc1ccc2c(ncc3nc(CS(C)(=O)=O)n(Cc4ccc(S(N)(=O)=O)c(F)c4)c32)n1
Input line: In this exercise, place the 3 compounds in ascending sequence of their recorded IC50. Lab note: final answer is the ordered label list.
Output line: I, II, III
